Conditions: in n-butanol, 318.15 K
Endpoint Name: solubility (mole fraction)
The answer should be written as a number, with no unit following it.

Query `c1ccc2oc(CSCc3nc4ccccc4o3)nc2c1` yields solubility (mole fraction) of 0.0516

* * *

Conditions: in chlorobenzene, 313.25 K
Endpoint Name: solubility (mole fraction)
Provide a numeric answer; units are not to be included.

Sure, the documented solubility (mole fraction) for `c1ccc2oc(CSCc3nc4ccccc4o3)nc2c1` is 0.0341

* * *

Details: in isopropanol, 293.15 K
Endpoint Name: solubility (mole fraction)

Per the record, `c1ccc2oc(CSCc3nc4ccccc4o3)nc2c1` has solubility (mole fraction) of 0.00703

* * *

Details: in n-butanol, 323.15 K
Endpoint Name: solubility (mole fraction)

// solubility (mole fraction) lookup, compound = `c1ccc2oc(CSCc3nc4ccccc4o3)nc2c1` , result: 0.0679

* * *

Settings: in toluene, 293.15 K
Endpoint Name: solubility (mole fraction)
Please state the value as a number alone, without comment.

For this compound ( `c1ccc2oc(CSCc3nc4ccccc4o3)nc2c1` ), measured solubility (mole fraction) is 0.00522

* * *

Conditions: in n-butanol, 308.15 K
Endpoint Name: solubility (mole fraction)
# print the numeric value only

Memo: `c1ccc2oc(CSCc3nc4ccccc4o3)nc2c1` , reported solubility (mole fraction): 0.0271

* * *

Details: in chlorobenzene, 318.05 K
Endpoint Name: solubility (mole fraction)
Please reply with the number alone, leaving off any unit.

Item: `c1ccc2oc(CSCc3nc4ccccc4o3)nc2c1` | solubility (mole fraction): 0.0427

* * *

Details: in o-xylene, 293.05 K
Endpoint Name: solubility (mole fraction)

Memo: `c1ccc2oc(CSCc3nc4ccccc4o3)nc2c1` , reported solubility (mole fraction): 0.00138

* * *

Conditions: in isopropanol, 278.15 K
Endpoint Name: solubility (mole fraction)
Form rule: numeric answer, no unit written next to it.

For this molecule ( `c1ccc2oc(CSCc3nc4ccccc4o3)nc2c1` ), measured solubility (mole fraction) is 0.00231

* * *

Conditions: in chlorobenzene, 287.95 K
Endpoint Name: solubility (mole fraction)

`c1ccc2oc(CSCc3nc4ccccc4o3)nc2c1` yielded solubility (mole fraction) of 0.00889

* * *

Conditions: in n-butanol, 303.25 K
Endpoint Name: solubility (mole fraction)
Please reply with the value in numeric form only.

Record `c1ccc2oc(CSCc3nc4ccccc4o3)nc2c1` . Reported solubility (mole fraction): 0.0199

* * *

Conditions: in isopropanol, 308.15 K
Endpoint Name: solubility (mole fraction)
Answer field: number only, no words.

response.value for `c1ccc2oc(CSCc3nc4ccccc4o3)nc2c1` (field: solubility (mole fraction)) = 0.0194

* * *

Conditions: in toluene, 313.25 K
Endpoint Name: solubility (mole fraction)
Write no unit; give the number alone.

For `c1ccc2oc(CSCc3nc4ccccc4o3)nc2c1` the molecule record lists solubility (mole fraction) as 0.0292

* * *

Conditions: in ethanol, 302.95 K
Endpoint Name: solubility (mole fraction)
Form rule: numeric answer, no unit written next to it.

Lab note: `c1ccc2oc(CSCc3nc4ccccc4o3)nc2c1` gave solubility (mole fraction) of 0.052

* * *

Details: in o-xylene, 287.95 K
Endpoint Name: solubility (mole fraction)

So for `c1ccc2oc(CSCc3nc4ccccc4o3)nc2c1` , the logged solubility (mole fraction) turned out to be 0.000899

* * *

Details: in ethanol, 278.15 K
Endpoint Name: solubility (mole fraction)

Query `c1ccc2oc(CSCc3nc4ccccc4o3)nc2c1` yields solubility (mole fraction) of 0.00978
